Target: T1, hFcRn on hFcRn-expressing HEK293 cells (human, UniProt P55899 24-365; P61769 21-119)
T1 construct: whole, on cells; also called hFcRn HEK293
T1 sequence (P55899 24-365 limits assumed, chain 1 of 2): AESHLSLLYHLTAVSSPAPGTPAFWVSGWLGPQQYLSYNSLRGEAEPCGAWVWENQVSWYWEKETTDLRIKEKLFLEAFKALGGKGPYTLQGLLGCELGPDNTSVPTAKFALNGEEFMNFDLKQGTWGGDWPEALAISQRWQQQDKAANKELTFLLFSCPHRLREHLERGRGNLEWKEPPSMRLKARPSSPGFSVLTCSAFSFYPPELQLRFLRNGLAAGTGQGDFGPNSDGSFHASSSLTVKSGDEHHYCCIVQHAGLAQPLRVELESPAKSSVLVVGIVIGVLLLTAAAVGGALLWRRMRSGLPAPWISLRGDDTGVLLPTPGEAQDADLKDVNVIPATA
T1 sequence (P61769 21-119 limits assumed, chain 2 of 2): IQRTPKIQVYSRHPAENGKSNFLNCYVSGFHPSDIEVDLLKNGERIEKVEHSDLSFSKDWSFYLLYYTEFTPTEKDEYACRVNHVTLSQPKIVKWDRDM
Experiment: FACS on hFcRn HEK293 cells, 10 nM antibody, pH 6.0
readout_label: MFI (MFI)
Kindly provide the numeric value in MFI only, without the unit symbol.

Enquiry: Look at this binder and give its reported MFI. HL161AN variant No. 17 (LC:N25Q, HC:C32S Q82S) (antibody, human IgG1, V domains shown, Variable domains only) VL: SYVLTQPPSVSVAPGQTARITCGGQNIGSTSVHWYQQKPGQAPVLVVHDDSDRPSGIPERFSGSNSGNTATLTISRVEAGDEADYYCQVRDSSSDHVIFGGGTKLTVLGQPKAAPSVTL VH: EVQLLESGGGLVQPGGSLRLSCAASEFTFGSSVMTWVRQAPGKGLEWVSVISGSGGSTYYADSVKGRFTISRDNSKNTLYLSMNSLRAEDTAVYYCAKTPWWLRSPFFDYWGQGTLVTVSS
Return: 2640

Enquiry: Look at this binder and give its reported MFI. HL161AN variant No. 6 (LC:N25S, HC:C32S Q82S) (antibody, human IgG1, V domains shown, Variable domains only) VL: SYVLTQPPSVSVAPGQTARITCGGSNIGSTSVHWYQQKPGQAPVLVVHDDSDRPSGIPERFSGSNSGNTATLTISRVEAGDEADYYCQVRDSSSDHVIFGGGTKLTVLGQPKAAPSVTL VH: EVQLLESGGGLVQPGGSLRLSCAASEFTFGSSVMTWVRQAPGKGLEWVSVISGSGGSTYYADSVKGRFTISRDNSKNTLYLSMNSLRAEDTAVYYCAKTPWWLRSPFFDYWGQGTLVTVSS
Return: 2650

Enquiry: Look at this binder and give its reported MFI. HL161AN variant No. 4 (LC:N25S, HC:Q82T) (antibody, human IgG1, V domains shown, Variable domains only) VL: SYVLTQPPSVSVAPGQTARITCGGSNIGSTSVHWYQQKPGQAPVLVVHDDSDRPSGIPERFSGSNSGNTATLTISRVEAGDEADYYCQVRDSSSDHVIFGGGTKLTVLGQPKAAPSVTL VH: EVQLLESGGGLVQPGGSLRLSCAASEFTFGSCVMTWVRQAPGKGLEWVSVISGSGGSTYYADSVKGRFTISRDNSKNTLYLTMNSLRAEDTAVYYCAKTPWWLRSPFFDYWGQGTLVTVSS
Return: 2690
